- Tested on: Nucleic Acid
- method_description: The compound was tested in vitro for its ability to initiate DNA replication
- Assay type: nucleic-acid assay
- condition_summary: Homo sapiens
quantity_kind: DNA
Answer as a quantity: numeral, then unit.

>>> print(df.to_string())
                               entry_smiles  readout_value
0  C[C@]12CC[C@@H]3c4ccc(O)cc4CC[C@H]3[C@@H]1C[C@@H](O)C2=O           150%
1  COc1c(O)ccc2c1CC[C@@H]1[C@@H]2CC[C@]2(C)C(=O)CC[C@@H]12            53%
2  C[C@]12CC[C@@H]3c4ccc(O)cc4CC[C@H]3[C@@H]1C[C@@H](O)[C@@H]2O           118%

## Input What reported DNA corresponds to CC(=O)[C@H]1CC[C@H]2[C@@H]3CCC4=CC(=O)CC[C@]4(C)[C@H]3CC[C@]12C on Nucleic Acid?
## Output 115%
